B1: CPEB3 Ribozyme (parent)
chain: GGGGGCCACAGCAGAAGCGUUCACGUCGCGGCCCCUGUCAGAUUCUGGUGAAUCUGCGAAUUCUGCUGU

Variants of: B1
Experiment: self-cleavage, relative activity (ratio to wild type); higher = more cleavage; co-transcriptional
Consider the following variants; for each one, report its self-cleavage.

Exercise: Which self-cleavage is reported for this variant? C7G U61C
Solution: 0.175

Exercise: Moving on to C12A U69A
Solution: 0.886

Exercise: Moving on to C6A A8C
Solution: 0.733

Exercise: Moving on to C6U C12G
Solution: 0.726

Exercise: Moving on to C34A G47C
Solution: 0.887

Exercise: Moving on to C32U U43G
Solution: 0.963

Exercise: Moving on to C7G C32U
Solution: 0.177

Exercise: Moving on to C24G C57A
Solution: 0.172

Exercise: Moving on to A13C U26A
Solution: 0.615

Exercise: Moving on to A16U G65A
Solution: 0.442

Exercise: Moving on to C35U U43A
Solution: 0.818

Exercise: Moving on to C6A U69A
Solution: 0.884

Exercise: Moving on to A51G C54G
Solution: 0.858

Exercise: Moving on to A8C C12U
Solution: 0.981

Exercise: Moving on to C24G U61C
Solution: 0.284

Exercise: Moving on to G4U U53A
Solution: 0.412

Exercise: Moving on to G4U C34A
Solution: 0.167

Exercise: Moving on to G3U U43A
Solution: 0.0999

Exercise: Moving on to U49A U64C
Solution: 0.919

Exercise: Moving on to C24G U61G
Solution: 0.306

Exercise: Moving on to G31A G41C
Solution: 0.349

Exercise: Moving on to C54A U55C
Solution: 0.656

Exercise: Moving on to U44A C66G
Solution: 0.658

Exercise: Moving on to G58C U61A
Solution: 0.877

Exercise: Moving on to C34U C39G
Solution: 0.973

Exercise: Moving on to G1C A40C
Solution: 0.231

Exercise: Moving on to G5C U64A
Solution: 0.246

Exercise: Moving on to G30C U36A
Solution: 0.192

Exercise: Moving on to G14A U49C
Solution: 0.646

Exercise: Moving on to G31A C63G
Solution: 0.391

Exercise: Moving on to G1A A10C
Solution: 0.117

Exercise: Moving on to G47U U49G
Solution: 0.989

Exercise: Moving on to G30U U49G
Solution: 0.352

Exercise: Moving on to A8C G56C
Solution: 0.83

Exercise: Moving on to C54A U61G
Solution: 0.415

Exercise: Moving on to C54U C66U
Solution: 0.975

Exercise: Moving on to G41C G56A
Solution: 0.667

Exercise: Moving on to G31A G58A
Solution: 0.741

Exercise: Moving on to A8C G14A
Solution: 0.669

Exercise: Moving on to C45A U69C
Solution: 1.07

Exercise: Moving on to G19A U69A
Solution: 0.184

Exercise: Moving on to C32A G50A
Solution: 0.693

Exercise: Moving on to U26A A52G
Solution: 0.825

Exercise: Moving on to A52G U55A
Solution: 0.914

Exercise: Moving on to A40G U69G
Solution: 1.02

Exercise: Moving on to G2A C27A
Solution: 0.0442
